Test system: HCT-116
Assay Procedure: Toxicity experiment in static conditions, hydrogel-encapsulated cells, Trypan-blue viability, PD model fit
Type: cell-based
Condition Details: Homo sapiens, HCT-116, 72 h, 5-FU 0, 0.1, 0.2, 0.5 mM, three days, read-out: KC50 (drug concentration where half of the maximum rate is observed), fitted PD parameter
Reported Endpoint: pEC50
On this scale, pEC50 is minus log10 of a concentration expressed in M (mol/L).

Entry O=c1[nH]cc(F)c(=O)[nH]1 , tested on HCT-116, has a reported pEC50 of 2.06

---

Tested on: HepG2/C3A
Assay Procedure: Toxicity experiment in static conditions, hydrogel-encapsulated cells, Trypan-blue viability, PD model fit
Type: cell-based
Condition Details: HepG2/C3A, 72 h, 5-FU 0, 0.1, 0.2, 0.5 mM, three days, read-out: KC50 (drug concentration where half of the maximum rate is observed), fitted PD parameter
Reported Endpoint: pEC50
Note on pEC50: it is the negative log10 of concentration, concentration in mol/L.

Noted for O=c1[nH]cc(F)c(=O)[nH]1 : its pEC50 reads 2.26
